Tested on: P388 leukemia ip, CD2F1 mice, survival T/C
assayText: NCI In Vivo Anticancer Drug Screen. Data for tumor model P388 Leukemia (intraperitoneal) in CD2F1 (CDF1) mice
experimentalSetup: endpoint: median survival time; dose: 200.0 mg/kg/injection; schedule: Q01DX001 (ip); vehicle: saline; higher = longer survival
Inconclusive results and toxic doses are left out.

{"compound": "O=[N+]([O-])c1ccc2nc(N/N=C/COC/C=N/Nc3nc4ccc([N+](=O)[O-])cc4s3)sc2c1", "T/C": "104 % of control"}
{"compound": "CS(C)=NS(C)(=O)=O", "T/C": "106 % of control"}
{"compound": "CSC1=NNC(C)(C)C(N)=N1", "T/C": "97 % of control"}
{"compound": "N#CCCCCCCCCCCCC1C=CCC1 (stereo unspecified)", "T/C": "98 % of control"}
{"compound": "OCCCCCCCCCCCC1C=CCC1 (stereo unspecified)", "T/C": "101 % of control"}
{"compound": "CCOC(=O)C(=C/C=C/N(C)C)C(=O)OCC", "T/C": "104 % of control"}
